The entries below are paired with their reported pIC50.
Test system: MCF7
Experiment: Cytotoxicity against human MCF7 cells assessed as inhibition of cell growth measured after 72 hrs by MTT assay
Assay type: functional, cell-based
Conditions: MCF7, 72 h
In textbook form, pIC50 equals minus log to base ten of the concentration in mol/L.

>  <compound>
CC(C)(C)S(=O)(=O)NCC1(Sc2nc3ccccc3[nH]2)C(=O)N(Cc2ccc(Br)cc2)c2ccccc21 (stereo not drawn)

>  <result_number>
4.89

$$$$

# query: pIC50 | item CN1C(=O)C(CNS(=O)(=O)C(C)(C)C)(Sc2nc3ccccc3[nH]2)c2cc(Br)ccc21 (stereo not drawn) | system: MCF7
4.89

Field entry: CC(C)(C)S(=O)(=O)NCC1(Sc2nnc(-c3ccc(Cl)cc3)n2-c2ccccc2)C(=O)N(Cc2ccccc2)c2ccccc21 (stereo not drawn)
4.35

Field entry: CC(C)(C)S(=O)(=O)NCC1(Sc2nnc(-c3ccccc3)o2)C(=O)N(Cc2ccccc2)c2ccc(F)cc21 (stereo not drawn)
4.39

Field entry: Cc1ccc(CN2C(=O)C(CNS(=O)(=O)C(C)(C)C)(Sc3nc4ccccc4[nH]3)c3ccccc32)cc1 (stereo not drawn)
4.86

Field entry: CC(C)(C)S(=O)(=O)NCC1(Sc2nnc(-c3ccccc3)o2)C(=O)N(Cc2ccccc2)c2ccccc21 (stereo not drawn)
4.81
